target: androgen receptor (Homo sapiens (Human), UniProt P10275); conditions: reference substance 3H-testosterone
Sequence (P10275 whole entry, species assumed): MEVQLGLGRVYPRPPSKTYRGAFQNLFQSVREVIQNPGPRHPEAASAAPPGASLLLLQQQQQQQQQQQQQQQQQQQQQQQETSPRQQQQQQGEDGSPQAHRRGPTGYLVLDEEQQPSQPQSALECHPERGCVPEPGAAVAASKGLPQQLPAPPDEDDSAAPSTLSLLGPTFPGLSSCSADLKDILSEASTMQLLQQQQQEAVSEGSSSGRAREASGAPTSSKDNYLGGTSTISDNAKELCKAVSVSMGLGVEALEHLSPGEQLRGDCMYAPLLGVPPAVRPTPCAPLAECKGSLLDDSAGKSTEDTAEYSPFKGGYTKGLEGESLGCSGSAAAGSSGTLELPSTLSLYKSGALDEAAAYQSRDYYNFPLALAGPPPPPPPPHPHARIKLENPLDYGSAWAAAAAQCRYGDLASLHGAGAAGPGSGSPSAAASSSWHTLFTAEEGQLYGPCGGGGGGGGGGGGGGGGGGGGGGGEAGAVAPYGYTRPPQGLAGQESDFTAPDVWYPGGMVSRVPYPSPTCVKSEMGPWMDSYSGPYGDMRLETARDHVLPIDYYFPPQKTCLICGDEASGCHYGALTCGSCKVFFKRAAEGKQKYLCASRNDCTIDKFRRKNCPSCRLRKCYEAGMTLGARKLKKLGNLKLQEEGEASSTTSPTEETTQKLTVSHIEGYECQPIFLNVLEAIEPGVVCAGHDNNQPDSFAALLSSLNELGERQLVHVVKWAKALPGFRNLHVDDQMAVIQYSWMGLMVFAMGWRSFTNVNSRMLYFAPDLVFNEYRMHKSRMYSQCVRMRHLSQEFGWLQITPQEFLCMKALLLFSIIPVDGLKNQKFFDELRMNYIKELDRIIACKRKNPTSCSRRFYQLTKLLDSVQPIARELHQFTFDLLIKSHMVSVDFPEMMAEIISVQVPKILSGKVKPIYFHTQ
Parameter Measured: Androgen receptor Competition factor

The following compounds each have a reported value; give each one's Androgen receptor Competition factor.
1. C=C[C@@H]1CC2=CC(=O)CC[C@@H]2[C@H]2CC[C@@]3(C)[C@@H](CC[C@@]34C=CC(=O)O4)[C@@H]21 (stereo in doubt)
2. CC[C@]12CC[C@H]3[C@@H]([C@H](C)CC4=CC(=O)CC[C@@H]43)[C@@H]1CC[C@@]21C=CC(=O)O1 (stereo in doubt)
3. C[C@]12CC[C@H]3[C@@H](CCC4=C(Cl)C(=O)CC[C@@H]43)[C@@H]1CC[C@@]21C=CC(=O)O1
4. CC[C@]12CC[C@H]3[C@@H](C=CC4=CC(=O)CC[C@@H]43)[C@@H]1CC[C@@]21C=CC(=O)O1 (stereo in doubt)
5. C=C[C@@H]1CC2=CC(=O)CC[C@@H]2[C@H]2CC[C@@]3(CC)[C@@H](CC[C@@]34C=CC(=O)O4)[C@@H]21 (stereo in doubt) [Example 10A]

a:
1. 4.7
2. 1.3
3. 7.5
4. 112.0
5. 1.8

---

Give measured Progesterone receptor Agonism efficacy for each item. Keep answers brief.
biological target: fusion protein from the PR-ligand-binding domain and a Gal4-transactivation domain (Homo sapiens (Human), UniProt P06401); test: cell-based; conditions: in-vitro transactivation, CHO K1 reporter cells
Sequence (P06401 679-913): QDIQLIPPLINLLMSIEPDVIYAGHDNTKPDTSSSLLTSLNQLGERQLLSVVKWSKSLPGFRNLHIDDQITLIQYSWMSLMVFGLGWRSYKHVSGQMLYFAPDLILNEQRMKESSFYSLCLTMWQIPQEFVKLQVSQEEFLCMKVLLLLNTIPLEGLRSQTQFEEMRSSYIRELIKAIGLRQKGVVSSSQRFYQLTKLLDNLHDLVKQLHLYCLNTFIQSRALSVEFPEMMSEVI
One number for each entry, in %.

C[C@]12CCC(=O)C=C1[C@@H]1C[C@@H]1[C@H]1[C@@H]3[C@@H]4C[C@@H]4[C@@]4(CCC(=O)O4)[C@@]3(C)CC[C@@H]12 [A, reference compound] ... 72.2

The following compounds each have a reported value; give each one's Progesterone receptor Agonism efficacy.
1. C[C@@H]1CC2=CC(=O)CC[C@@H]2[C@H]2CC[C@@]3(C)[C@@H](CC[C@@]34C=CC(=O)O4)[C@@H]21 (stereo in doubt) [Example 2A]
2. C[C@]12CC[C@H]3[C@@H](CCC4=CC(=O)CC[C@@H]43)[C@@H]1CC1(CC1)[C@@]21C=CC(=O)O1 (stereo in doubt) [Example 5]
3. C=C[C@@H]1CC2=CC(=O)CC[C@@H]2[C@H]2CC[C@@]3(CC)[C@@H](CC[C@@]34C=CC(=O)O4)[C@@H]21 (stereo in doubt) [Example 10A]
4. CC[C@]12CC[C@H]3[C@@H]([C@H](C4CC4)CC4=CC(=O)CC[C@@H]43)[C@@H]1CC[C@@]21C=CC(=O)O1 (stereo in doubt) [Example 11A]
5. CC[C@@H]1CC2=CC(=O)CC[C@@H]2[C@H]2CC[C@@]3(C)[C@@H](CC[C@@]34C=CC(=O)O4)[C@H]12 (stereo in doubt) [Example 3A]
6. C=C[C@@H]1CC2=CC(=O)CC[C@@H]2[C@H]2CC[C@@]3(C)[C@@H](CC[C@@]34C=CC(=O)O4)[C@@H]21 (stereo in doubt) [Example 4A]
7. CC[C@]12CC[C@H]3[C@@H](CCC4=C(Cl)C(=O)CC[C@@H]43)[C@@H]1CC[C@@]21C=CC(=O)O1 [Example 13]

a:
1. 44.4
2. 46.9
3. 52.4
4. 47.7
5. 16.2
6. 67.5
7. 25.3
